# Experimental system: Programmed cell death protein 1/Programmed cell death 1 ligand 1 (Homo sapiens, UniProt Q9NZQ7)
# Sequence (Q15116 whole entry): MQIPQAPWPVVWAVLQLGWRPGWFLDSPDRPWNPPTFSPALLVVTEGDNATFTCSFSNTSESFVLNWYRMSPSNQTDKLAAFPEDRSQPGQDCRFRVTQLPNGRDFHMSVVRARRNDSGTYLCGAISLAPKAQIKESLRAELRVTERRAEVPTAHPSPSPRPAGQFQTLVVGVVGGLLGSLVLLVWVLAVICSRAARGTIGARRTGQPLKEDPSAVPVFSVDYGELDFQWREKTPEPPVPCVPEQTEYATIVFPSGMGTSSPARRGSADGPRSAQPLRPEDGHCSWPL
# Sequence (Q9NZQ7 whole entry): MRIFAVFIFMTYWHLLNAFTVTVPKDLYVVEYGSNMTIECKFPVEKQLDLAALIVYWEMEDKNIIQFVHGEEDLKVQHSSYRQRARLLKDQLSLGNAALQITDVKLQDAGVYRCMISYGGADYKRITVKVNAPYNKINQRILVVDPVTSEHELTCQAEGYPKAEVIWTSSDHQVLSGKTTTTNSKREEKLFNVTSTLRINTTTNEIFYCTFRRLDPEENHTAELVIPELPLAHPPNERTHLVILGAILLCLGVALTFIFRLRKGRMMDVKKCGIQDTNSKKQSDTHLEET
# Assay method text: Inhibition of PD-1/PD-L1 interaction (unknown origin) incubated for 15 mins by ELISA
Metric name: pIC50
Would you please state pIC50, meaning minus log10 of the concentration in mol/L, as a bare number?

Challenge: For the compound shown here, CC(C)c1ccc(C(=O)N2CCC(NC(=O)c3nc(-n4ccnc4)c4ccccc4n3)CC2)cc1 , give the reported pIC50.
Response given: 7.41

Challenge: Try the compound CC(=O)c1ccc(C(=O)N2CCC(NC(=O)c3nc(-n4cncn4)c4ccccc4n3)CC2)cc1
Response given: 7.77

Challenge: // next record CC(=O)c1ccc(NC(=O)c2nc(-n3ccnc3)c3ccccc3n2)cc1
Response given: 7.08

---

# Experimental system: Lanosterol 14-alpha demethylase (Candida albicans (strain SC5314 / ATCC MYA-2876) (Yeast))
# Assay method text: Inhibition of Candida albicans ATCC SC5314 CYP51 assessed as other unknown sterol content at 4 ug/ml measured after 16 hrs by GC-MS analysis (Rvb= 3.82%)
# Design: scale not given: the % may be the effect or the level left
# Condition: at 4 µg/mL
Hi there, I'd appreciate the recorded Activity for every entry that follows.
Could you give me the number in %? Just the number is fine.

Challenge: Please tell me: Activity of CC(C)c1ccc(C(=O)N2CCC(NC(=O)c3nc(-n4ccnc4)c4ccccc4n3)CC2)cc1 , system Lanosterol 14-alpha demethylase (Candida albicans (strain SC5314 / ATCC MYA-2876) (Yeast))?
Response given: 5.58

Challenge: Same question for OC(Cn1cncn1)(Cn1cncn1)c1ccc(F)cc1F [FLUCONAZOLE] please.
Response given: 5.58

Challenge: // same read-out, input: CC(=O)c1ccc(C(=O)N2CCC(NC(=O)c3nc(-n4cncn4)c4ccccc4n3)CC2)cc1
Response given: 5.74

Challenge: Field entry: CC(=O)c1ccc(NC(=O)c2nc(-n3ccnc3)c3ccccc3n2)cc1
Response given: 6.14

---

# Tested on: Candida albicans
# Assay method text: Antifungal activity against fluconazole-resistant Candida albicans 632 assessed as inhibition of fungal growth incubated for 72 hrs by CLSI based liquid medium microdilution method
# Type: functional
Would you mind telling me the reported MIC50 of each entry?

Challenge: Query: MIC50; subject: CC(=O)c1ccc(C(=O)N2CCC(NC(=O)c3nc(-n4cncn4)c4ccccc4n3)CC2)cc1
Response given: 1 µg/mL

Challenge: OC(Cn1cncn1)(Cn1cncn1)c1ccc(F)cc1F , same question.
Response given: > 8 µg/mL

Challenge: Again, but for CC(C)c1ccc(C(=O)N2CCC(NC(=O)c3nc(-n4ccnc4)c4ccccc4n3)CC2)cc1
Response given: 1 µg/mL

Challenge: Another compound to check: CC(=O)c1ccc(NC(=O)c2nc(-n3ccnc3)c3ccccc3n2)cc1
Response given: 2 µg/mL

Challenge: Field entry: CC(=O)N1CCN(c2ccc(OCC3COC(Cn4ccnc4)(c4ccc(Cl)cc4Cl)O3)cc2)CC1 (stereo not given)
Response given: > 8 µg/mL

---

# Experimental system: Lanosterol 14-alpha demethylase (Candida albicans (strain SC5314 / ATCC MYA-2876) (Yeast), UniProt P10613)
# Sequence (P10613 whole entry): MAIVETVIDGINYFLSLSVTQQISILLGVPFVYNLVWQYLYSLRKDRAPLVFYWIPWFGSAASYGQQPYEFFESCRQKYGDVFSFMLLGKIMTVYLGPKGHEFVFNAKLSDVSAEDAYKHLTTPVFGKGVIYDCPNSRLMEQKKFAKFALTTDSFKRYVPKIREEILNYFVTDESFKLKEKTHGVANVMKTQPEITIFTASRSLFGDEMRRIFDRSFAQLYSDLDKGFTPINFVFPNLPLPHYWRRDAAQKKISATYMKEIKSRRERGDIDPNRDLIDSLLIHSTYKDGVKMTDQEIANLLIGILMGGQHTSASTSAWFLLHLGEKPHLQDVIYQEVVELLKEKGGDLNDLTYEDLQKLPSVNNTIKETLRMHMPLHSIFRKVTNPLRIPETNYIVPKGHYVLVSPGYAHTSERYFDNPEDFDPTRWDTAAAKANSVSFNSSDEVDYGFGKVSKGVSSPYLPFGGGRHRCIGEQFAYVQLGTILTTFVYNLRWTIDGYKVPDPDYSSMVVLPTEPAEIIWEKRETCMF
# Assay method text: Inhibition of Candida albicans ATCC SC5314 CYP51 assessed as eburicol content at 4 ug/ml measured after 16 hrs by GC-MS analysis (Rvb= 3.47%)
# Set-up: scale not given: the % may be the effect or the level left
# Condition: at 4 µg/mL
Metric name: Activity (%)
The reply should contain only the number, in %.

Challenge: Query (compound): CC(=O)c1ccc(NC(=O)c2nc(-n3ccnc3)c3ccccc3n2)cc1 ; field requested: Activity
Response given: 41.69

Challenge: // query: CC(=O)c1ccc(C(=O)N2CCC(NC(=O)c3nc(-n4cncn4)c4ccccc4n3)CC2)cc1
Response given: 43.15

Challenge: Next up: CC(C)c1ccc(C(=O)N2CCC(NC(=O)c3nc(-n4ccnc4)c4ccccc4n3)CC2)cc1
Response given: 45.04

Challenge: Now give it for OC(Cn1cncn1)(Cn1cncn1)c1ccc(F)cc1F [FLUCONAZOLE] too.
Response given: 46.52

---

# Experimental system: Programmed cell death 1 ligand 1 (Homo sapiens, UniProt Q9NZQ7)
# Sequence (Q9NZQ7 whole entry): as the sequence (Q9NZQ7 whole entry) above
Would you mind telling me the reported pKd of each entry?
Formally, pKd is defined as -log10 of the concentration c, with c in mol/L.

Challenge: Form field: pKd recorded for CC(=O)c1ccc(C(=O)N2CCC(NC(=O)c3nc(-n4cncn4)c4ccccc4n3)CC2)cc1 with Programmed cell death 1 ligand 1 (Homo sapiens, UniProt Q9NZQ7) (enter value)
Response given: 7.18

Challenge: Try this molecule too: CC(=O)c1ccc(NC(=O)c2nc(-n3ccnc3)c3ccccc3n2)cc1
Response given: 7.46

Challenge: Next: CC(C)c1ccc(C(=O)N2CCC(NC(=O)c3nc(-n4ccnc4)c4ccccc4n3)CC2)cc1
Response given: 7.22

---

# Experimental system: Lanosterol 14-alpha demethylase (Candida albicans (strain SC5314 / ATCC MYA-2876) (Yeast))
# Assay method text: Inhibition of Candida albicans ATCC SC5314 CYP51 using lanosterol as substrate incubated for 30 mins by HPLC assay
Please provide measured IC50 for the entries that follow.
# value in nM; strip the unit string

Challenge: // query IC50 value for entry OC(Cn1cncn1)(Cn1cncn1)c1ccc(F)cc1F
Response given: 159

Challenge: Same for CC(C)c1ccc(C(=O)N2CCC(NC(=O)c3nc(-n4ccnc4)c4ccccc4n3)CC2)cc1
Response given: 205

Challenge: Now give it for CC(=O)c1ccc(C(=O)N2CCC(NC(=O)c3nc(-n4cncn4)c4ccccc4n3)CC2)cc1 too.
Response given: 263

Challenge: Record: CC(=O)c1ccc(NC(=O)c2nc(-n3ccnc3)c3ccccc3n2)cc1
Response given: 884

---

# Tested on: Candida tropicalis
# Assay method text: Antifungal activity against Candida tropicalis ATCC 1369 assessed as inhibition of fungal growth incubated for 72 hrs by CLSI based liquid medium microdilution method
# Assay type: functional
Rule: MIC50 below 1 µg/mL gives satisfied, anything at or above gives not satisfied.

Challenge: Strictly below 1 µg/mL in MIC50? OC(Cn1cncn1)(Cn1cncn1)c1ccc(F)cc1F
Response given: satisfied

Challenge: Please give the result for CS(=O)(=O)c1ccc(NC(=O)c2nc(-n3cncn3)c3ccccc3n2)cc1 too.
Response given: not satisfied

Challenge: Queued: CS(=O)(=O)c1ccc(NC(=O)c2nc(-n3ccnc3)c3cc(Cl)ccc3n2)cc1
Response given: not satisfied

Challenge: For O=C(NC1CCCc2ccccc21)c1nc(-n2cncn2)c2cc(Cl)ccc2n1 (stereo unspecified) then?
Response given: not satisfied

Challenge: Same question, CC(=O)c1ccc(C(=O)N2CCC(NC(=O)c3nc(-n4ccnc4)c4ccccc4n3)CC2)cc1 this time
Response given: satisfied

Challenge: What about COc1ccc(C(=O)N2CCC(NC(=O)c3nc(-n4cncn4)c4ccccc4n3)CC2)cc1 ?
Response given: satisfied

Challenge: Now the compound CC(C)c1ccc(C(=O)N2CCC(NC(=O)c3nc(-n4ccnc4)c4ccccc4n3)CC2)cc1
Response given: satisfied

Challenge: Same question, CC(=O)c1ccc(C(=O)N2CCC(NC(=O)c3nc(-n4cncn4)c4ccccc4n3)CC2)cc1 this time
Response given: satisfied

Challenge: What do you get for O=C(NC1CCCc2ccccc21)c1nc(-n2ccnc2)c2ccccc2n1 (stereo unspecified) ?
Response given: not satisfied

Challenge: And what about the compound CC(=O)c1ccc(NC(=O)c2nc(-n3cncn3)c3cc(Cl)ccc3n2)cc1 ?
Response given: satisfied

Challenge: Another compound: O=C(NCc1ccccc1)c1nc(-n2ccnc2)c2cc(Cl)ccc2n1
Response given: not satisfied

Challenge: # repeat for CC(=O)c1ccc(NC(=O)c2nc(-n3cncn3)c3ccccc3n2)cc1
Response given: satisfied

Challenge: Likewise for CC(=O)N1CCN(c2ccc(OCC3COC(Cn4ccnc4)(c4ccc(Cl)cc4Cl)O3)cc2)CC1 (stereo unspecified) ?
Response given: satisfied

Challenge: What about O=C(NCc1ccccc1)c1nc(-n2ccnc2)c2ccccc2n1 ?
Response given: not satisfied

Challenge: Okay, and CS(=O)(=O)c1ccc(NC(=O)c2nc(-n3ccnc3)c3ccccc3n2)cc1 ?
Response given: not satisfied

Challenge: Record: O=C(NC1CCCc2ccccc21)c1nc(-n2ccnc2)c2cc(Cl)ccc2n1 (stereo unspecified)
Response given: not satisfied

---

Give measured Activity for each item. Keep answers brief.
# Experimental system: Lanosterol 14-alpha demethylase (Candida albicans (strain SC5314 / ATCC MYA-2876) (Yeast))
# Assay method text: Inhibition of Candida albicans ATCC SC5314 CYP51 assessed as lanosterol content at 4 ug/ml measured after 16 hrs by GC-MS analysis relative to control
# Parameters: scale not given: the % may be the effect or the level left
# Condition: at 4 µg/mL
Numeric answer only, unit % assumed.

Challenge: # input compound: CC(=O)c1ccc(NC(=O)c2nc(-n3ccnc3)c3ccccc3n2)cc1 ; wanted: its Activity
Response given: 20.64

Challenge: Try the compound OC(Cn1cncn1)(Cn1cncn1)c1ccc(F)cc1F
Response given: 30.06

Challenge: Now try CC(=O)c1ccc(C(=O)N2CCC(NC(=O)c3nc(-n4cncn4)c4ccccc4n3)CC2)cc1 .
Response given: 32.47

Challenge: Next up: CC(C)c1ccc(C(=O)N2CCC(NC(=O)c3nc(-n4ccnc4)c4ccccc4n3)CC2)cc1
Response given: 29.53

Cited source: ChEMBL document CHEMBL5365481
